Measured protein stability index values are reported for all entries that follow.
B1: SEC22B (parent)
chain: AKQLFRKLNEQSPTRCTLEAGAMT

Variants of: B1
Experiment Notes: protein stability index of a GFP-peptide fusion (GPS, HEK-293T) (PSI 1-6); higher = more stable;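 also: lentivirally expressed fusions sorted by FACS into six bins by GFP to DsRed ratio, PSI derived from sequencing read proportions per bin multiplied by bin number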
Cond: c terminus: a fixed tail appended
Outcome Measure: protein stability index

| Residue Sequence | Result Value |
| --- | --- |
| AKQLFRKLNELSPTRCTLEAGAMT [Q11L] | 1.38 |
| AKQLFRKLNEQSPKRCTLEAGAMT [T14K] | 2.41 |
| PKQLFRKLNEQSPTRCTLEAGAMT [A1P] | 2.52 |
| AKQWFRKLNEQSPTRCTLEAGAMT [L4W] | 2.02 |
| AKQLFRKLNEQSPTRCTAEAGAMT [L18A] | 3.25 |
| GKQLFRKLNEQSPTRCTLEAGAMT [A1G] | 2.26 |
| AKQLFRKLNEQSPTRCTLEAGPMT [A22P] | 2.25 |
| AKQLMRKLNEQSPTRCTLEAGAMT [F5M] | 2.62 |
| AKSLFRKLNEQSPTRCTLEAGAMT [Q3S] | 1.88 |
| AKQKFRKLNEQSPTRCTLEAGAMT [L4K] | 2.89 |
| QKQLFRKLNEQSPTRCTLEAGAMT [A1Q] | 2.44 |
| AKQLFRKLNEQSPTRCTLEAGAMV [T24V] | 1.99 |
| AKQTFRKLNEQSPTRCTLEAGAMT [L4T] | 3.27 |
| AKQLFRKLNEQSPTRCTSEAGAMT [L18S] | 3.26 |
| AKQLFRHLNEQSPTRCTLEAGAMT [K7H] | 2.64 |
| AEQLFRKLNEQSPTRCTLEAGAMT [K2E] | 2.92 |
| AKQLFRKLNEQSPYRCTLEAGAMT [T14Y] | 1.99 |
| AKKLFRKLNEQSPTRCTLEAGAMT [Q3K] | 2.02 |
| AKQLFRKLNKQSPTRCTLEAGAMT [E10K] | 1.65 |
| AKQLFRKLNEQSPTRCTLEAGIMT [A22I] | 2.17 |
| AKQLFRKLNEQSPTRCTLCAGAMT [E19C] | 2.52 |
| AKLLFRKLNEQSPTRCTLEAGAMT [Q3L] | 2.08 |
